# System: MRSA 31 high-resist. (IPM resist.)
# Assay procedure: antibacterial activity (MIC), standard in vitro dilution test
# Format: cell-based, Staphylococcus aureus
# Reported conditions: Staphylococcus aureus, MRSA, test bacterium strain 10^5 cfu/ml; read-out: MIC, MRSA 31 high-resist. (IPM resist.)
Reported MIC by item:
Mention the unit after the number when you answer.

Tell me reported MIC for CC[C@H](O)[C@@H]1C(=O)N2C(C(=O)O)=C(SC3CCN(CC(=O)c4ccccc4C)C3)S[C@H]12 (stereo partly drawn) [Ex. 226] , tested with MRSA 31 high-resist. (IPM resist.). 6.25 µg/mL

Tell me reported MIC for CC[C@H](O)[C@@H]1C(=O)N2C(C(=O)O)=C(SCc3ccc(C#N)cc3)S[C@H]12 [Ex. 239] , tested with MRSA 31 high-resist. (IPM resist.). 0.78 µg/mL

Tell me reported MIC for CC[C@H](O)[C@@H]1C(=O)N2C(C(=O)O)=C(SC3CN(C(C)=N)C3)S[C@H]12 [Ex. 255] , tested with MRSA 31 high-resist. (IPM resist.). 3.13 µg/mL

Tell me reported MIC for CC[C@H](O)[C@@H]1C(=O)N2C(C(=O)O)=C(SCCC(=O)Nc3ccccc3)S[C@H]12 [Ex. 134] , tested with MRSA 31 high-resist. (IPM resist.). 6.25 µg/mL

###

# System: MRSA 31 high-resist. (IPM resist.)
# Assay procedure: antibacterial activity (MIC), standard in vitro dilution test
# Type: cell-based, Staphylococcus aureus
# Reported conditions: Staphylococcus aureus, MRSA, test bacterium strain 10^5 cfu/ml; read-out: MIC, MRSA 31 high-resist. (IPM resist.)
Reported MIC by item:
Could you give me the number in µg/mL? Just the number is fine.

Known MIC results, listed for orientation:
Molecule smiles: CC[C@H](O)[C@]1(C(=O)O)C(=O)N2C=C(S[C@H]3CCN(Cc4ccccc4)C3)S[C@@H]21
MIC (µg/mL): 3.13

Molecule smiles: CC[C@H](O)[C@@H]1C(=O)N2C(C(=O)O)=C(S[C@H]3CCN(C(C)=N)C3)S[C@H]12
MIC (µg/mL): 3.13

Molecule smiles: CC[C@H](O)[C@@H]1C(=O)N2C(C(=O)O)=C(SC3CN(C=N)C3)S[C@H]12
MIC (µg/mL): 6.25

Molecule smiles: CC[C@H](O)[C@@H]1C(=O)N2C(C(=O)O)=C(S[C@H]3CCN(C4Cc5ccccc5C4)C3)S[C@H]12
MIC (µg/mL): 6.25

Give the measured MIC of CC[C@H](O)[C@@H]1C(=O)N2C(C(=O)O)=C(SC3Cc4ccccc4C3)S[C@H]12 . 1.56

Give the measured MIC of CC[C@H](O)[C@@H]1C(=O)N2C(C(=O)O)=C(S[C@H]3CCN(CC(=O)c4ccccc4)C3)S[C@H]12 . 3.13

###

# Tested on: MRSA 31 high-resist. (IPM resist.)
# Assay procedure: antibacterial activity (MIC), standard in vitro dilution test
# Format: cell-based, Staphylococcus aureus
# Reported conditions: Staphylococcus aureus, MRSA, test bacterium strain 10^5 cfu/ml; read-out: MIC, MRSA 31 high-resist. (IPM resist.)
Reported MIC by item:
Could you give me the number in µg/mL? Just the number is fine.

Give the measured MIC of CC[C@H](O)[C@@H]1C(=O)N2C(C(=O)O)=C(SC3CCN(C4CC4)C3)S[C@H]12 (some centres unmarked) [Ex. 235] . 6.25

Give the measured MIC of CC[C@H](O)[C@@H]1C(=O)N2C(C(=O)O)=C(SC3CCN(c4ccccc4)C3)S[C@H]12 (some centres unmarked) [Ex. 105] . 1.56

Give the measured MIC of CC[C@H](O)[C@@H]1C(=O)N2C(C(=O)O)=C(S[C@H]3CCN(CCCC(=O)c4ccccc4)C3)S[C@H]12 [Ex. 215] . 6.25

Give the measured MIC of CC[C@H](O)[C@@H]1C(=O)N2C(C(=O)O)=C(S[C@H]3CCN(c4ncccn4)C3)S[C@H]12 [Ex. 209] . 6.25

Give the measured MIC of CC[C@H](O)[C@@H]1C(=O)N2C(C(=O)O)=C(SCCN(C)CC(=O)c3ccccc3)S[C@H]12 [Ex. 142] . 6.25
